# assayed.system: YtrASa (Sulfolobus acidocaldarius)
# Sequence: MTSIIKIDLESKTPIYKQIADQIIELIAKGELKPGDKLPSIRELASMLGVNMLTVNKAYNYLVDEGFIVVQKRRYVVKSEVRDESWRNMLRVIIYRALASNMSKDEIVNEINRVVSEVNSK
# test.protocol: EMSA
# applied.conditions: 20 mM Tris-HCl pH 8.0, 1 mM MgCl2, 0.1 mM DTT, 12.5% glycerol, 50 mM NaCl, 0.4 mM EDTA, 37 C; ~0.1 nM 32P-DNA, excess non-specific competitor DNA; 6% native …
readout.type: binding

Some sequences with recorded binding:
query.sequence	assayed.system	binding
GTTTTGAGTACAACCTAACCCATTATACTAAATAAGGTTTATTTATTTTAGTAACTTTTAGAAATTATGCAAGATCTTTTTTGGGAAAGTGCAAATTGCCTTGAGGGAAAAGGTCTGCAA (double strand) [Saci_2168 target]	YtrASa (Sulfolobus acidocaldarius)	no binding
TCCTGAAGGCCTAAAAGAGTACATTCTAGACCTTTCCGCATAAAACTTAGGTAGGGCTAGGCATAATGCAAAAGCCCTCAAACTTTTCATTAAAGAAGTGATT (double strand) [Saci_0677 target]	YtrASa (Sulfolobus acidocaldarius)	no binding
AAAATGGGAGAGTAATCGGTTTTTATTGAGACTTCGCAATACGATATATATGGATACAAAAGTTGTAATTAGAAGAGATCAGTGGAAACCAGGATCGGCGATGGAAATAAAGCGAGGCGT (double strand) [Saci_1234 target]	YtrASa (Sulfolobus acidocaldarius)	no binding
CTTACCTTTTATAGTAGGTAAATAAGGTTTTTATTCCCCTAAATCATATATTTGCTATATGACAAGTATAATAAAAATCGACCTAGAGTCCAAGACTCCCATC (double strand) [ytrASa (Saci_1851) target, 102 bp]	YtrASa (Sulfolobus acidocaldarius)	binds

# map each sequence to its binding
1. AGCAACACCAAAGGATTGAATTTCATTTCTATCCCTGTTTGACTTAAAGCAAGACTCTTGAATAAAAAATATAATTTAGAGGTTTACTAAAAACAAACCGTGAACGTAGGAAGA (double strand) [Saci_0871 target]
2. GGGAAAGGATATTGGGGAAATATTAAAAATACTGGGTTGAAGTTTAAACTTGTGTTTAAACAACTAATAATTAAATATTTTGGGATAATATCTGTTGTAATCCTTGCAACAATAATCTC (double strand) [Saci_0421 target]

## Output
1. no binding
2. no binding
